- experimental.target: T1, human CD33 extracellular domain (human, UniProt P20138 18-259)
- T1 construct: soluble monomeric ECD; also called human CD33 ECD; hCD33
- run.description: SPR, Fab captured, 37C;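 further: Anti-CD33 Fabs captured on anti-Fab chip, soluble monomeric CD33 or its domains flowed over at several concentrations, double-referenced data fitted 1:1, Kd taken as koff/kon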
pKd: −log10 of the molar value.
measured.property: pKd

>>> value_reported("ADI-11835 Fab (Fab, V domains shown, Fab fragment; also called Ab10; I35) VH: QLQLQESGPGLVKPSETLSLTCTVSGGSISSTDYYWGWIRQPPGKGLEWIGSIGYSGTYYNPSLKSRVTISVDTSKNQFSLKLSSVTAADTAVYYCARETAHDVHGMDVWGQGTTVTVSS VL: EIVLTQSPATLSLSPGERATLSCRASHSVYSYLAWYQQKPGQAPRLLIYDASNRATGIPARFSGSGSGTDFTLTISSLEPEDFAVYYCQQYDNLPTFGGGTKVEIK")
9.28
>>> value_reported("ADI-11807 Fab (Fab, V domains shown, Fab fragment; also called Ab5; I07) VH: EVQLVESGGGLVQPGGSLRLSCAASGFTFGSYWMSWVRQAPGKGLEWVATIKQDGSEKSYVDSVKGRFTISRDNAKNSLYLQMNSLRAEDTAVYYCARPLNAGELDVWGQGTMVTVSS VL: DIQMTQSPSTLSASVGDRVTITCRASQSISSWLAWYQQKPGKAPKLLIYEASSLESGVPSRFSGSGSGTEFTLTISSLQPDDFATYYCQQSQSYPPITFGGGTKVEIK")
9.54
